Documented IC50 across a set of molecules
biological target: TRPC5 channel (Homo sapiens, UniProt Q9UL62); construct: expressed in transfected cells; host or cells: HEK293/TREx (Invitrogen), tetracycline-induced; experiment: High throughput screening assay: Fluo4 cell-based fluorescence assay of intracellular Ca2+ rise; settings: HEK293/TREx cells inducibly expressing TRPC5, 0.027-20 μM in triplicate, NF = no IC50 curve could be fit
Sequence (Q9UL62 whole entry): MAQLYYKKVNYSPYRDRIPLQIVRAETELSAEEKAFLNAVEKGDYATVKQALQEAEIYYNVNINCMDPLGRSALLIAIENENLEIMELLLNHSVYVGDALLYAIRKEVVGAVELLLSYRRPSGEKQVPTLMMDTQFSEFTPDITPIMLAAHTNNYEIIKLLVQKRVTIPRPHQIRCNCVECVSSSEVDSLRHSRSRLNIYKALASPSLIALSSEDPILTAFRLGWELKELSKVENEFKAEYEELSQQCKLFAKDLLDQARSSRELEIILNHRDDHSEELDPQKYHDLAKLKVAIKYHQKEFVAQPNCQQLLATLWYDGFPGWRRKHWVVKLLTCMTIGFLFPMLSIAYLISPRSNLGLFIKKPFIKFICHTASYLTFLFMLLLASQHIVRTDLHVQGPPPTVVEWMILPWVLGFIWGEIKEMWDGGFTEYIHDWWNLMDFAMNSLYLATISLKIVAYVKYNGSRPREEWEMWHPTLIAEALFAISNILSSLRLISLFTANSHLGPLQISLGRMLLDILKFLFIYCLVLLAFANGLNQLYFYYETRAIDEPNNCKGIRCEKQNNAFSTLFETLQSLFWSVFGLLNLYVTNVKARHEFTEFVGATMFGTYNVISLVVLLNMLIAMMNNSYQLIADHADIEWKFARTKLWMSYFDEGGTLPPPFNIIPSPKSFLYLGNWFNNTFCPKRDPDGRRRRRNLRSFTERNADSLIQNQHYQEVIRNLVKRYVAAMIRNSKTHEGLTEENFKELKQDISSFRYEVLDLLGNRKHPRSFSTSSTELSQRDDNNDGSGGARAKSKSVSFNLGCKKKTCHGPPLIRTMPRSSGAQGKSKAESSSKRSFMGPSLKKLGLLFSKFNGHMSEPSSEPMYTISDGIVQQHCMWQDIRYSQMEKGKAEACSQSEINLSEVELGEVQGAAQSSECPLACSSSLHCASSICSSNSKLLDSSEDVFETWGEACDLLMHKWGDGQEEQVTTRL
measure: IC50 (nM)

- CC(C)c1ccccc1-c1cnc2c(c1C(O)c1ccc(Cl)cc1)c(=O)n(CCCO)c(=O)n2C (stereo not drawn): 977
- Cn1c(=O)n(CCCO)c(=O)c2c(Cc3ccc(Cl)cc3)c(-c3cccc(F)c3)cnc21: 739
- CC(C)Oc1cnc2c(c1Cc1ccccc1)c(=O)n(CCCO)c(=O)n2C: 27
- Cn1c(=O)n(CCCO)c(=O)c2c(Cc3ccc(F)cc3)c(Oc3ccc(Cl)cc3)cnc21: 357

###

Molecular target: TRPC5 channel (Homo sapiens)
Construct: expressed in transfected cells; host or cells: HEK293/TREx (Invitrogen), tetracycline-induced
Assay: Patch clamp experiments (whole-cell, LaCl3-activated TRPC5 current)
Type: cell-based
Settings: whole-cell patch clamp in TRPC5-expressing HEK293 TREx cells; block of inward and outward currents in continued presence of LaCl3; IC50 estimated
Experimental: Patch clamp experiments permit the detection of currents through the TRPC5 channel in the cell line described above. […] TRPC5 cells were induced 20-48 hours, removed from growth plates, and replated at low density (to attain good single-cell physical separation) on glass coverslips for measurement. […] Currents elicited were quantified at −80 mV and +80 mV. […]
measure: IC50 (nM)

* Cn1c(=O)n(CCCO)c(=O)c2c(C(O)c3ccc(Cl)cc3)c(-c3cccc(OC(F)(F)F)c3)cnc21 (stereo not drawn) [Compound 39] | 51.7
* CC(C)Oc1cnc2c(c1Cc1ccc(F)cc1)c(=O)n(CCCO)c(=O)n2C [Compound 31] | 1.47
* Cn1c(=O)n(CCCO)c(=O)c2c(Cc3ccc(Cl)cn3)c(-c3cccc(OC(F)(F)F)c3)cnc21 [Compound 35] | 3.4
* Cn1c(=O)n(CCCO)c(=O)c2c(Cc3ccccc3)c(-c3cccc(F)c3)cnc21 [Compound 34] | 8.3
